# measuredOn: human δ opioid receptor (Homo sapiens, UniProt P41143)
# Sequence (P41143 whole entry): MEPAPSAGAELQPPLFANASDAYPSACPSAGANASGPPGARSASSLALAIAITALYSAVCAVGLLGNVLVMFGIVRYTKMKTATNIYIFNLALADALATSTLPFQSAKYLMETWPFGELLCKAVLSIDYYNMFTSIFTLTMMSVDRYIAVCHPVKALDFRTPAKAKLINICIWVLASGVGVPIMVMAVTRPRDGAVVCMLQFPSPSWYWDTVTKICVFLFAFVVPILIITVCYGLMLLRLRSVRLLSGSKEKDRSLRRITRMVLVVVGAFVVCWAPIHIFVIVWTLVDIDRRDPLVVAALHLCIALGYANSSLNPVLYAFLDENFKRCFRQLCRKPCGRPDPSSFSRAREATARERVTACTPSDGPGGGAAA
measuredMetric: Ki (nM)
Write it as a number; the unit nM goes unstated.

Task item: Provide Ki, recorded with human δ opioid receptor (Homo sapiens, UniProt P41143), of CN1CCC23c4c5ccc(O)c4OC2(CO)C(=O)CCC3(O)C1C5 (stereo not shown)
Reply: 208

====

# measuredOn: UniProt P35372
# Sequence (P35372 whole entry): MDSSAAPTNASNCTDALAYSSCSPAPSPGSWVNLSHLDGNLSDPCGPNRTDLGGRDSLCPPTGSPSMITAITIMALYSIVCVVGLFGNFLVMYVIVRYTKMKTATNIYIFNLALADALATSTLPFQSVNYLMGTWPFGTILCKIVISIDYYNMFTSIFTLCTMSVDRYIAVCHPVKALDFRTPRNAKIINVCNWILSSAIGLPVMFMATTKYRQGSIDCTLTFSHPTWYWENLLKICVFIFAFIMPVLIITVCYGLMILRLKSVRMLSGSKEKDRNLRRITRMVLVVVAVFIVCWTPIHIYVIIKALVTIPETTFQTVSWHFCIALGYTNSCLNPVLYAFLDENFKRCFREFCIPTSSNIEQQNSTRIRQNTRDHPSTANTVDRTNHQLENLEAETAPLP
# assayMethodText: biochemical
measuredMetric: EC50 (nM)
Numbers only; they are read as nM.

Task item: Report value: EC50, system: UniProt P35372, molecule: CN1CCC23c4c5ccc(O)c4OC2(CO)C(=O)CCC3(O)C1C5 (stereo not shown) [UMB 425]
Reply: 35

Numbers sourced from patent US9422302B2.
